The origin of these recorded values is paper PMC10625055.

# Tested target: UniProtKB Q06187
# Sequence (Q06187 2-659): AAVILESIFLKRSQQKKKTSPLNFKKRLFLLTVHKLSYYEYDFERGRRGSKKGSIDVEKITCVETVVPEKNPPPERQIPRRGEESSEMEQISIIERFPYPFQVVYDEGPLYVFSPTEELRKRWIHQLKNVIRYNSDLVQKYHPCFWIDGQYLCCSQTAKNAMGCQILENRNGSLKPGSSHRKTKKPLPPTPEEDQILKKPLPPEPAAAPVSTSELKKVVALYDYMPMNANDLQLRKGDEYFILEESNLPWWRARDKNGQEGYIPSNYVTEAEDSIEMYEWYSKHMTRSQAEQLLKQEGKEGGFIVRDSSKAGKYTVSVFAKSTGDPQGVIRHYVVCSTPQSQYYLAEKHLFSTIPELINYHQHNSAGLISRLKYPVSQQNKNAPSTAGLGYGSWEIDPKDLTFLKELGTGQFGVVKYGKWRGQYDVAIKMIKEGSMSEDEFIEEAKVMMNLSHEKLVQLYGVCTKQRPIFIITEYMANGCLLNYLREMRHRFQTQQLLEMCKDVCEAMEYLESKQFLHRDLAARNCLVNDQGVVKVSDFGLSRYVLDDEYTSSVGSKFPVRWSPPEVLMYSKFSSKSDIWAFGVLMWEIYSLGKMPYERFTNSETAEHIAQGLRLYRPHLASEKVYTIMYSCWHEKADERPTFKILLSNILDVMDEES
# Method summary: radiometric kinase assay, recombinant human kinase
Measure name: IC50
Quick note: number first, unit second.

C=CC(=O)N1CCC[C@@H](c2nn(-c3ccc(Oc4cccc(F)c4F)cc3)c3cncc(F)c23)C1 has a reported IC50 of 2.1 nM
